test.target: Serotonin 5-HT2A (Homo sapiens)
Sequence (P28223 whole entry): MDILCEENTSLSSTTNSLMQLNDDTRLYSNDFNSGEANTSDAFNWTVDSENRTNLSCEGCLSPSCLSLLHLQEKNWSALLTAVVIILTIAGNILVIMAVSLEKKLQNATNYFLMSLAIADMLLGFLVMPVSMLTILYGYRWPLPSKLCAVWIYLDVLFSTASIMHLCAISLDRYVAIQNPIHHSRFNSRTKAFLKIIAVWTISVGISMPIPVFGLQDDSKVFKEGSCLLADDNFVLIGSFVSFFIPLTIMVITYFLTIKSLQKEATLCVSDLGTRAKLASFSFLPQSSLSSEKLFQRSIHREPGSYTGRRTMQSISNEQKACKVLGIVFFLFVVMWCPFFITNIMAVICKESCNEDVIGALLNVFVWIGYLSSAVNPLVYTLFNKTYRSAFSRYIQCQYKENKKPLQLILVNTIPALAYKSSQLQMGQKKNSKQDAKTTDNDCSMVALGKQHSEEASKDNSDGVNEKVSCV
endpoint.label: pIC50
To interpret pIC50, take it as minus log10 of a concentration measured in moles per litre.

Reported pIC50, compound Cc1ccccc1-c1cc(N2CCN(C)CC2)ncc1C(=O)N(C)Cc1cc(C(F)(F)F)cc(C(F)(F)F)c1 : ____
4.82

====

assay.procedure: Aqueous solubility
Assay type: physicochemical
condition.info: water, hydrochloride salt
endpoint.label: solubility (µg/mL)
Record the value in µg/mL, omitting the unit from your answer.

Endpoint output: solubility of Cc1ccccc1-c1cc(N2CCN(C)CC2)ncc1C(=O)N(C)Cc1cc(C(F)(F)F)cc(C(F)(F)F)c1 . Value?
1500

====

test.target: Muscarinic cholinergic M2 (Homo sapiens, UniProt P08172)
Sequence (P08172 1-466): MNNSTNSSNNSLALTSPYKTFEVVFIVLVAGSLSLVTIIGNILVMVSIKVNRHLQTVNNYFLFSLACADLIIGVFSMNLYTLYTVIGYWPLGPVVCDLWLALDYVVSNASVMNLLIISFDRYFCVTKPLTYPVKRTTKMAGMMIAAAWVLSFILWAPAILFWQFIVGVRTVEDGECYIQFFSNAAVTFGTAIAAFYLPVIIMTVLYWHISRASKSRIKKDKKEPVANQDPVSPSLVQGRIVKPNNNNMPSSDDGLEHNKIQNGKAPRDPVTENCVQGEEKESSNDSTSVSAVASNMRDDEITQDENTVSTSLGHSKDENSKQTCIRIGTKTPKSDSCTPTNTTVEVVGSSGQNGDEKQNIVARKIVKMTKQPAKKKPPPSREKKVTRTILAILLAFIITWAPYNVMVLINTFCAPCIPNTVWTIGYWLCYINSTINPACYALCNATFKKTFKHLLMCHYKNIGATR
endpoint.label: pIC50
# pIC50: negative log10 of molar concentration; output just the value

Record lookup: for Muscarinic cholinergic M2 (Homo sapiens, UniProt P08172), what pIC50 belongs to Cc1ccccc1-c1cc(N2CCN(C)CC2)ncc1C(=O)N(C)Cc1cc(C(F)(F)F)cc(C(F)(F)F)c1 ?
4.52

====

test.target: Adenosine A2A (Homo sapiens)
Sequence (P29274 whole entry): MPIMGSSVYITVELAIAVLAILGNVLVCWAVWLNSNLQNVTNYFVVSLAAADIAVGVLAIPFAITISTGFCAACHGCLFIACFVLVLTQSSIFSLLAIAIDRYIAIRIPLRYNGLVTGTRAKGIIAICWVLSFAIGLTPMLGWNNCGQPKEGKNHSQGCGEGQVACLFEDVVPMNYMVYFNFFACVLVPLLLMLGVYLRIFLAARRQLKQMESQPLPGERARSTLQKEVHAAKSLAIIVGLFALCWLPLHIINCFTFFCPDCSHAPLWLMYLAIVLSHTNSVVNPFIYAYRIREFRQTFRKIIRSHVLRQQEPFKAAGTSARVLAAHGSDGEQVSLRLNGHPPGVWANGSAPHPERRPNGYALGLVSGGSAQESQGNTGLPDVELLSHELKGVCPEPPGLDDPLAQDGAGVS
assay.procedure: Cerep selectivity profiling, receptor antagonism
Format: biochemical
endpoint.label: IC50 (µM)
Give just the number in µM; leave the unit off.

So what does the record say about IC50 for Cc1ccccc1-c1cc(N2CCN(C)CC2)ncc1C(=O)N(C)Cc1cc(C(F)(F)F)cc(C(F)(F)F)c1 [EUC-001] ?
30

====

test.target: Histamine H2 (Homo sapiens, UniProt P25021)
Sequence (P25021 whole entry): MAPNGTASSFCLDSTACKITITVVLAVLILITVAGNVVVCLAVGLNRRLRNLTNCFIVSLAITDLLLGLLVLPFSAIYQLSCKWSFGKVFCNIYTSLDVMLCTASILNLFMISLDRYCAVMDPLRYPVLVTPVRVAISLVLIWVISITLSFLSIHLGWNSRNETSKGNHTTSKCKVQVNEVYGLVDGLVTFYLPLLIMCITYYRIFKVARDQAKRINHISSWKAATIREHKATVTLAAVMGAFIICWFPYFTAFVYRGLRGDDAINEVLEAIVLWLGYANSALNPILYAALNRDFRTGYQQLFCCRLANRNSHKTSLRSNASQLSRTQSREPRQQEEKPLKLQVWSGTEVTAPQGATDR
endpoint.label: IC50 (µM)
Please state the figure in µM; there is no need to write the unit.

So what's the measured IC50 for this one? Cc1ccccc1-c1cc(N2CCN(C)CC2)ncc1C(=O)N(C)Cc1cc(C(F)(F)F)cc(C(F)(F)F)c1 [EUC-001]
16

====

test.target: UniProt:P20309
Sequence (P20309 whole entry): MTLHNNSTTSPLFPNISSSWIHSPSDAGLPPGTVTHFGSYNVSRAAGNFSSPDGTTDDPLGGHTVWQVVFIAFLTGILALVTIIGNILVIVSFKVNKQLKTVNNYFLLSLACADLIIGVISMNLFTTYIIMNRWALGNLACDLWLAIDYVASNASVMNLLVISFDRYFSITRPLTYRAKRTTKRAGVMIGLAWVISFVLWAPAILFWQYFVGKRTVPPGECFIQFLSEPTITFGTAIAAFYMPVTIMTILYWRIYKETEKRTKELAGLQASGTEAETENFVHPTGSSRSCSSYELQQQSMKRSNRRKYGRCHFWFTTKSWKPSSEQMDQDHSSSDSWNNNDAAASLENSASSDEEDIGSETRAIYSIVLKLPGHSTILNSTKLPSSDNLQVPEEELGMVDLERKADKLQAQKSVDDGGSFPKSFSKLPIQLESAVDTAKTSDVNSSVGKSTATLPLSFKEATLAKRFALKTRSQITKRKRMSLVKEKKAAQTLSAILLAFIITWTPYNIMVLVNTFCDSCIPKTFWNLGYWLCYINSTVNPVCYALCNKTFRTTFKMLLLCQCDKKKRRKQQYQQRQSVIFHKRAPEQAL
endpoint.label: IC50
Form entry: enter the amount, then its unit.

I would be grateful if you could share the reported IC50 for Cc1ccccc1-c1cc(N2CCN(C)CC2)ncc1C(=O)N(C)Cc1cc(C(F)(F)F)cc(C(F)(F)F)c1 .
3.3 µM

====

assay.procedure: Aqueous solubility
Type: physicochemical
condition.info: water, free base
endpoint.label: solubility (µg/mL)
Provide only the numeric value, understood in µg/mL.

Which solubility value belongs to Cc1ccccc1-c1cc(N2CCN(C)CC2)ncc1C(=O)N(C)Cc1cc(C(F)(F)F)cc(C(F)(F)F)c1 [EUC-001] ?
500

====

test.target: recombinant human NK3 receptor (Homo sapiens, UniProt P29371)
Sequence (P29371 1-465): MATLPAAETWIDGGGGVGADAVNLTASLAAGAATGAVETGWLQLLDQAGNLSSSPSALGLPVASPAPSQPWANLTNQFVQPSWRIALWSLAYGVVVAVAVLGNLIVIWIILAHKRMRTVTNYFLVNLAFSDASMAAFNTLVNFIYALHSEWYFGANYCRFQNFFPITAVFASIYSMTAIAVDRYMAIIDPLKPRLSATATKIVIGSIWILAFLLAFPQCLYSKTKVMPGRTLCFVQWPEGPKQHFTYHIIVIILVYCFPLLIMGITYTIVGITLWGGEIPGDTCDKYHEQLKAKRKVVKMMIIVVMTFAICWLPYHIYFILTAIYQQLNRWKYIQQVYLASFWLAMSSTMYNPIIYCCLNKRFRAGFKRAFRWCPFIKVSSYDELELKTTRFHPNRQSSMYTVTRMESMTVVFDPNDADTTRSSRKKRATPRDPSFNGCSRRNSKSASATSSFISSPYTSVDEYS
assay.procedure: Radioligand binding, recombinant human NK3 receptor
endpoint.label: Ki (µM)
Reply numerically in µM, unit not repeated.

Requested read-out: Ki. Entry: Cc1ccccc1-c1cc(N2CCN(C)CC2)ncc1C(=O)N(C)Cc1cc(C(F)(F)F)cc(C(F)(F)F)c1
17
